The values you see were collected from patent US20250129012A1.

# assay_comment: In vivo pharmacokinetics in SD rats
# study_conditions: Sprague-Dawley, rat, in vivo, po, 10 mg/kg

smiles_code: CNC(=O)c1ccc2c(cc1=O)[C@@H](NC(C)=O)CCc1cc(OC)c(OC)c(OC)c1-2
Tmax: 15 min

smiles_code: [2H]C([2H])([2H])NC(=O)c1ccc2c(cc1=O)[C@@H](NC(C)=O)CCc1cc(OC)c(OC)c(OC)c1-2
Tmax: 25 min

smiles_code: COc1cc2c(c(OC)c1OC)-c1ccc(C(=O)Nc3ccccc3)c(=O)cc1[C@@H](NC(C)=O)CC2
Tmax: 160 min

smiles_code: [2H]C([2H])([2H])Oc1c(OC)c(OC)cc2c1-c1ccc(C(=O)NC)c(=O)cc1[C@@H](NC(C)=O)CC2
Tmax: 15 min

smiles_code: [2H]C([2H])([2H])Oc1cc2c(c(OC)c1OC([2H])([2H])[2H])-c1ccc(C(=O)NC)c(=O)cc1[C@@H](NC(C)=O)CC2
Tmax: 20 min

smiles_code: CCNC(=O)c1ccc2c(cc1=O)[C@@H](NC(C)=O)CCc1cc(OC)c(OC)c(OC)c1-2
Tmax: 20 min

* * *

# assay_comment: In vivo pharmacokinetics in SD rats
# study_conditions: Sprague-Dawley, rat, in vivo, po; Gavage - 10 mg/kg; read-out: Tmax
test_readout: Tmax (min)

compound: CNC(=O)c1ccc2c(cc1=O)[C@@H](NC(C)=O)CCc1cc3c(c(OC)c1-2)OCO3 [Compound 125]
result_value: 15
//
compound: COc1cc2c(c(OC)c1OC)-c1ccc(OC)c(=O)cc1[C@@H](NC(C)=O)CC2 [colchicine, reference compound]
result_value: 25

* * *

# System: IL-6
# assay_comment: Inflammatory factor experiment B: IL-6 in knee synovial tissue (ELISA)
# Format: in vivo, SD rats
# study_conditions: Rattus norvegicus, po; synovial tissue of knee joints, 48 h after modeling; dose 0.6 mg/kg; read-out: IL-6 percentage decrease %
test_readout: inhibition in vivo at 0.6 mg/kg (%)

compound: CNC(=O)c1ccc2c(cc1=O)[C@@H](NC(C)=O)CCc1cc(OC)c(OC)c(OC)c1-2
result_value: 110

compound: CCNC(=O)c1ccc2c(cc1=O)[C@@H](NC(C)=O)CCc1cc(OC)c(OC)c(OC)c1-2
result_value: 128

compound: COc1cc2c(c(OC)c1OC)-c1ccc(OC)c(=O)cc1[C@@H](NC(C)=O)CC2 [colchicine, reference compound]
result_value: 83.5

compound: COC(=O)c1ccc2c(cc1=O)[C@@H](NC(C)=O)CCc1cc(OC)c(OC)c(OC)c1-2
result_value: 115

compound: COc1cc2c(c(OC)c1OC)-c1ccc(C(=O)Nc3ccccc3)c(=O)cc1[C@@H](NC(C)=O)CC2
result_value: 86.7

* * *

# System: ICR mice
# assay_comment: Acute toxicity test in mice by single administration
# Format: in vivo
# study_conditions: single gavage dose 50 mg/kg; 14 days; deaths/animals

compound: CNC(=O)c1ccc2c(cc1=O)[C@@H](NC(C)=O)CCc1cc(OC)c(OC)c(OC)c1-2 [Compound 48]
Mortality rate: 0/6
--
compound: CCNC(=O)c1ccc2c(cc1=O)[C@@H](NC(C)=O)CCc1cc(OC)c(OC)c(OC)c1-2 [Compound 55]
Mortality rate: 0/6
--
compound: COc1cc2c(c(OC)c1OC)-c1ccc(C(=O)Nc3ccccc3)c(=O)cc1[C@@H](NC(C)=O)CC2 [Compound 58]
Mortality rate: 0/6
--
compound: COc1cc2c(c(OC)c1OC)-c1ccc(OC)c(=O)cc1[C@@H](NC(C)=O)CC2 [colchicine, reference compound]
Mortality rate: 3/6
--
compound: COC(=O)c1ccc2c(cc1=O)[C@@H](NC(C)=O)CCc1cc(OC)c(OC)c(OC)c1-2 [Compound 34]
Mortality rate: 0/6

* * *

# assay_comment: In vivo pharmacokinetics in SD rats
# study_conditions: Sprague-Dawley, rat, in vivo, po, 10 mg/kg
The entries below are paired with their reported MRT inf.

smiles_code: [2H]C([2H])([2H])Oc1cc2c(c(OC)c1OC([2H])([2H])[2H])-c1ccc(C(=O)NC)c(=O)cc1[C@@H](NC(C)=O)CC2
units_label: h
MRT inf: 1.71

smiles_code: CCNC(=O)c1ccc2c(cc1=O)[C@@H](NC(C)=O)CCc1cc(OC)c(OC)c(OC)c1-2
units_label: h
MRT inf: 2.72

smiles_code: [2H]C([2H])([2H])Oc1c(OC)c(OC)cc2c1-c1ccc(C(=O)NC)c(=O)cc1[C@@H](NC(C)=O)CC2
units_label: h
MRT inf: 2.1

smiles_code: CNC(=O)c1ccc2c(cc1=O)[C@@H](NC(C)=O)CCc1cc(OC)c(OC)c(OC)c1-2
units_label: h
MRT inf: 1.83

smiles_code: COc1cc2c(c(OC)c1OC)-c1ccc(C(=O)Nc3ccccc3)c(=O)cc1[C@@H](NC(C)=O)CC2
units_label: h
MRT inf: 4.58

smiles_code: [2H]C([2H])([2H])NC(=O)c1ccc2c(cc1=O)[C@@H](NC(C)=O)CCc1cc(OC)c(OC)c(OC)c1-2
units_label: h
MRT inf: 2.2

* * *

# Tested on: gouty arthritis rats (sodium urate, right ankle and knee joint cavities)
# assay_comment: Pharmacodynamics experiment B on gouty arthritis rats: ankle swelling rate
# Format: in vivo, SD rats
# study_conditions: Rattus norvegicus, po, 8 h, read-out: Swelling rate (ankle)
Given measured change in vivo at 0.6 mg/kg, output class 1 if it is greater than or equal to 10% and class 0 if not.

compound: COc1cc2c(c(OC)c1OC)-c1ccc(OC)c(=O)cc1[C@@H](NC(C)=O)CC2 [colchicine, reference compound]
target_under_test: gouty arthritis rats (sodium urate, right ankle and knee joint cavities)
group_label: class 1

compound: COc1cc2c(c(OC)c1OC)-c1ccc(=O)c(O[C@H]3CCOC3)cc1[C@@H](NC(C)=O)CC2 [Compound 19]
target_under_test: gouty arthritis rats (sodium urate, right ankle and knee joint cavities)
group_label: class 1

compound: COC(=O)c1cc2c(cc(=O)c1OC)[C@@H](NC(C)=O)CCc1cc(OC)c(OC)c(OC)c1-2 [Compound 40]
target_under_test: gouty arthritis rats (sodium urate, right ankle and knee joint cavities)
group_label: class 1

compound: COc1cc2c(c(OC)c1OC)-c1cc(I)c(OC)c(=O)cc1[C@@H](NC(C)=O)CC2 [Compound 12]
target_under_test: gouty arthritis rats (sodium urate, right ankle and knee joint cavities)
group_label: class 1

compound: COc1cc2c(c(OC)c1OC)-c1cc(C)c(OC)c(=O)cc1[C@@H](NC(C)=O)CC2 [Compound 16]
target_under_test: gouty arthritis rats (sodium urate, right ankle and knee joint cavities)
group_label: class 1

compound: CNC(=O)c1ccc2c(cc1=O)[C@@H](NC(C)=O)CCc1cc(OC)c(O)c(OC)c1-2 [Compound 121]
target_under_test: gouty arthritis rats (sodium urate, right ankle and knee joint cavities)
group_label: class 1

compound: COc1cc2c(c(OC)c1OC)-c1cc(C)c(O[C@H]3CCOC3)c(=O)cc1[C@@H](NC(C)=O)CC2 [Compound 30]
target_under_test: gouty arthritis rats (sodium urate, right ankle and knee joint cavities)
group_label: class 0

compound: CNC(=O)c1cc2c(ccc1=O)-c1c(cc(OC)c(OC)c1OC)CC[C@@H]2NC(C)=O [Compound 49]
target_under_test: gouty arthritis rats (sodium urate, right ankle and knee joint cavities)
group_label: class 0

compound: COc1cc2c(c(OC)c1OC)-c1ccc(C(=O)N3CCOCC3)c(=O)cc1[C@@H](NC(C)=O)CC2 [Compound 83]
target_under_test: gouty arthritis rats (sodium urate, right ankle and knee joint cavities)
group_label: class 1

compound: COc1cc2c(c(OC)c1OC)-c1ccc(-n3ccc(C)n3)c(=O)cc1[C@@H](NC(C)=O)CC2 [Compound 98]
target_under_test: gouty arthritis rats (sodium urate, right ankle and knee joint cavities)
group_label: class 1

compound: CNC(=O)c1ccc2c(cc1=O)[C@@H](NC(=O)C1CC1)CCc1cc(OC)c(OC)c(OC)c1-2 [Compound 102]
target_under_test: gouty arthritis rats (sodium urate, right ankle and knee joint cavities)
group_label: class 1

compound: CNC(=O)N[C@H]1CCc2cc(OC)c(OC)c(OC)c2-c2cc(C)c(OC)c(=O)cc21 [Compound 44]
target_under_test: gouty arthritis rats (sodium urate, right ankle and knee joint cavities)
group_label: class 0

compound: COc1cc2c(c(OC)c1OC)-c1ccc(S(N)(=O)=O)c(=O)cc1[C@@H](NC(C)=O)CC2 [Compound 69]
target_under_test: gouty arthritis rats (sodium urate, right ankle and knee joint cavities)
group_label: class 1

compound: COc1cc2c(c(OC)c1OC)-c1ccc(-c3cnn(C)c3)c(=O)cc1[C@@H](NC(C)=O)CC2 [Compound 119]
target_under_test: gouty arthritis rats (sodium urate, right ankle and knee joint cavities)
group_label: class 1

compound: COc1cc2c(c(OC)c1OC)-c1ccc(N3CCCC3=O)c(=O)cc1[C@@H](NC(C)=O)CC2 [Compound 52]
target_under_test: gouty arthritis rats (sodium urate, right ankle and knee joint cavities)
group_label: class 1

compound: COc1cc2c(c(OC)c1OC)-c1ccc(C#N)c(=O)cc1[C@@H](NC(C)=O)CC2 [Compound 38]
target_under_test: gouty arthritis rats (sodium urate, right ankle and knee joint cavities)
group_label: class 1

compound: COc1cc2c(c(OC)c1OC)-c1ccc(OCC(F)(F)F)c(=O)cc1[C@@H](NC(C)=O)CC2 [Compound 36]
target_under_test: gouty arthritis rats (sodium urate, right ankle and knee joint cavities)
group_label: class 0
